Each recorded value in this set is attributed to patent US7090834B1.

tested_system: KDR receptor (Homo sapiens, UniProt P35968)
Sequence (P35968 20-327 limits assumed): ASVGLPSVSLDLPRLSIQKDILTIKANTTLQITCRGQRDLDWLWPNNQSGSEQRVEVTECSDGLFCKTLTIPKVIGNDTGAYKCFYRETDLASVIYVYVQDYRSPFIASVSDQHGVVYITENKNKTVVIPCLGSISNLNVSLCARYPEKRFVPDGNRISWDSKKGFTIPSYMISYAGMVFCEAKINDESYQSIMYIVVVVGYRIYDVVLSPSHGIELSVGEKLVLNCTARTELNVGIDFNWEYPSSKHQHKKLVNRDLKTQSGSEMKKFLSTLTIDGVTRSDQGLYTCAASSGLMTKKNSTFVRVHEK
test_summary: KDR receptor binding ELISA (inhibition of biotinylated native VEGF (8–109) binding)
settings: second figure of the cell, variant midpoint concentration divided by that of native VEGF
Give measured Relative Binding Affinity, KDR Receptor: ratio to native VEGF (8–109) for each item. Keep answers brief.

// below: answered molecules
>  <molecule>
LK-VRB-23s (ligand, human, UniProt P15692-4 27-135, looked up) APMAEGGGQNHHEVVKFEDVLRRSSCHPIETLVDIFQEYPDEIEYIFKPSCVPLMRCGGCCNDEGRECVPTEESNITMQIMRIKPHQGQHIGEMSFLQHNKCECRPKKD

>  <reading>
11 nM/11

$$$$
>  <molecule>
LK-VRB-21s (ligand, human, UniProt P15692-4 27-135, looked up) APMAEGGGQNHHEVVKFEDVLRRSSCHPIETLVDIFQEYPDEIEYIFKPSCVPLMRCGGCCNSEGLECVPTEESNITMQIMRIKPHQGQHIGEMSFLQHNKCECRPKKD

>  <reading>
3 nM/3

$$$$

Please supply Relative Binding Affinity, KDR Receptor: ratio to native VEGF (8–109) for each of the following items, keeping them in order.
1. LK-VRB-5s: VEGF (1–109) variant with D63S/L66R (protein) APMAEGGGQNHHEVVKFMDVYQRSYCHPIETLVDIFQEYPDEIEYIFKPSCVPLMRCGGCCNSEGRECVPTEESNITMQIMRIKPHQGQHIGEMSFLQHNKCECRPKKD
2. LK-VRB-22s (ligand, human, UniProt P15692-4 27-135, looked up) APMAEGGGQNHHEVVKFEDVLRRSSCHPIETLVDIFQEYPDEIEYIFKPSCVPLMRCGGCCNDEMLECVPTEESNITMQIMRIKPHQGQHIGEMSFLQHNKCECRPKKD
3. LK-VRB-16s (ligand, human, UniProt P15692-4 27-135, looked up) APMAEGGGQNHHEVVKFMDVYRRSSCHPIETLVDIFQEYPDEIEYIFKPSCVPLMRCGGCCNSEMRECVPTEESNITMQIMRIKPHQGQHIGEMSFLQHNKCECRPKKD
4. LK-VRB-25s (ligand, human, UniProt P15692-4 27-135, looked up) APMAEGGGQNHHEVVKFEDVLRRSSCHPIETLVDIFQEYPDEIEYIFKPSCVPLMRCGGCCNSEGRECVPTEESNITMQIMRIKPHQGQHIGEMSFLQHNKCECRPKKD
5. LK-VRB-14s (ligand, human, UniProt P15692-4 27-135, looked up) APMAEGGGQNHHEVVKFMDVLRRSYCHPIETLVDIFQEYPDEIEYIFKPSCVPLMRCGGCCNSEMRECVPTEESNITMQIMRIKPHQGQHIGEMSFLQHNKCECRPKKD
6. LK-VRB-4s: VEGF (1–109) variant with F17I/M18E/Y21F/Q22E/Y25I (protein) APMAEGGGQNHHEVVKIEDVFERSICHPIETLVDIFQEYPDEIEYIFKPSCVPLMRCGGCCNDEGLECVPTEESNITMQIMRIKPHQGQHIGEMSFLQHNKCECRPKKD

a:
1: 1 nM/1; 2: 4 nM/4; 3: 0.6 nM/0.6; 4: 4 nM/4; 5: 0.5 nM/0.5; 6: 1 nM/1
